# STUDY_SYSTEM: recombinant HIV-1 protease (Human immunodeficiency virus type 1 group M subtype B, UniProt P04585)
# Construct: recombinant HIV-1 protease; purchased Bachem Bioscience
# TEST_DESCRIPTION: Fluorometric (FRET) enzymatic assay for the inhibition constant (Ki) against the HIV protease
# Type: biochemical
# APPLIED_CONDITIONS: Table 1, benzylated D-mannitol derivatives; pH 4.7, 30° C., substrate 10 μM, protease 18.3 nM
Response field class: string, computed from recorded Ki by ranges bin 1 (below 1000 nM), bin 2 (1000 nM to below 4000 nM), bin 3 (4000 nM or more)

Enquiry: Category of O[C@@H]([C@H](O)[C@@H](COCc1ccc(F)cc1F)OCc1ccccc1)[C@@H](COCc1ccc(F)cc1F)OCc1ccccc1 [Compound 33] , please.
Return: bin 3

Enquiry: Category of O[C@@H]([C@H](O)[C@@H](COCc1ccccc1F)OCc1ccccc1)[C@@H](COCc1ccccc1F)OCc1ccccc1 [Compound 32] , please.
Return: bin 1

Enquiry: Category of O[C@@H]([C@H](O)[C@@H](COCc1ccccc1F)OCc1ccc(F)cc1)[C@@H](COCc1ccccc1F)OCc1ccccc1 [Compound 62] , please.
Return: bin 1

Enquiry: Category of Cc1ccccc1CO[C@H](COCc1ccccc1F)[C@@H](O)[C@H](O)[C@@H](COCc1ccccc1F)OCc1ccccc1C [Compound 38] , please.
Return: bin 1

Enquiry: Category of N#Cc1ccc(COC[C@@H](OCc2ccc(C#N)cc2)[C@@H](O)[C@H](O)[C@@H](COCc2ccc(C#N)cc2)OCc2ccc(C#N)cc2)cc1 [Compound 12] , please.
Return: bin 2

Enquiry: Category of O=Cc1ccc(CO[C@H](COCc2ccccc2)[C@@H](O)[C@H](O)[C@@H](COCc2ccccc2)OCc2ccc(C=O)cc2)cc1 [Compound 49] , please.
Return: bin 3

Enquiry: Category of OCc1ccc(COC[C@@H](OCc2ccccc2)[C@@H](O)[C@H](O)[C@@H](COCc2ccc(CO)cc2)OCc2ccccc2)cc1 [Compound 48] , please.
Return: bin 2

Enquiry: Category of N#Cc1ccc(COC[C@@H](OCc2ccccc2)[C@@H](O)[C@H](O)[C@@H](COCc2ccc(C#N)cc2)OCc2ccccc2)cc1 [Compound 28] , please.
Return: bin 3

Enquiry: Category of Oc1ccc(COC[C@@H](OCc2ccc(F)cc2)[C@@H](O)[C@H](O)[C@@H](COCc2ccc(OCc3ccccc3)cc2)OCc2ccc(F)cc2)cc1 [Compound 76] , please.
Return: bin 1

Enquiry: Category of COC(=O)c1ccc(CO[C@H](COCc2ccccc2)[C@@H](O)[C@H](O)[C@@H](COCc2ccccc2)OCc2ccc(C(=O)OC)cc2)cc1 [Compound 19] , please.
Return: bin 3

Enquiry: Category of O=C(O)c1ccc(CO[C@H](COCc2ccccc2)[C@@H](O)[C@H](O)[C@@H](COCc2ccccc2)OCc2ccc(C(=O)O)cc2)cc1 [Compound 43] , please.
Return: bin 3

Enquiry: Category of O[C@@H]([C@H](O)[C@@H](COCc1ccc(F)cc1)OCc1ccccc1)[C@@H](COCc1ccc(F)cc1)OCc1ccccc1 [Compound 31] , please.
Return: bin 2

Enquiry: Category of Oc1cccc(CO[C@H](COCc2ccccc2)[C@@H](O)[C@H](O)[C@@H](COCc2ccccc2)OCc2cccc(O)c2)c1 [Compound 3] , please.
Return: bin 3

Enquiry: Category of O[C@@H]([C@H](O)[C@@H](COCc1ccccc1F)OCc1ccccc1)[C@@H](COCc1ccccc1)OCc1ccccc1 [Compound 10] , please.
Return: bin 1

Enquiry: Category of O=C(O)c1ccc(COC[C@@H](OCc2ccccc2)[C@@H](O)[C@H](O)[C@@H](COCc2ccc(C(=O)O)cc2)OCc2ccccc2)cc1 [Compound 51] , please.
Return: bin 3

Enquiry: Category of NCc1ccc(CO[C@H](COCc2ccccc2)[C@@H](O)[C@H](O)[C@@H](COCc2ccccc2)OCc2ccc(CN)cc2)cc1 [Compound 46] , please.
Return: bin 3

Enquiry: Category of Cc1ccc(CO[C@H](COCc2ccccc2)[C@@H](O)[C@H](O)[C@@H](COCc2ccccc2)OCc2ccc(C)cc2)cc1 [Compound 24] , please.
Return: bin 2

Enquiry: Category of O[C@@H]([C@H](O)[C@@H](COCc1ccccc1F)OCc1cccc(F)c1)[C@@H](COCc1ccccc1F)OCc1cccc(F)c1 [Compound 57] , please.
Return: bin 2

Enquiry: Category of O[C@@H]([C@H](O)[C@@H](COCc1ccccc1)OCc1ccc(F)cc1)[C@@H](COCc1ccccc1)OCc1ccc(F)cc1 [Compound 16] , please.
Return: bin 1

Enquiry: Category of O[C@@H]([C@H](O)[C@@H](COCc1ccc(C(F)(F)F)cc1)OCc1ccc(C(F)(F)F)cc1)[C@@H](COCc1ccc(C(F)(F)F)cc1)OCc1ccc(C(F)(F)F)cc1 [Compound 11] , please.
Return: bin 3

Enquiry: Category of O[C@@H]([C@H](O)[C@@H](COCc1cccc(F)c1)OCc1ccccc1)[C@@H](COCc1cccc(F)c1)OCc1ccccc1 [Compound 53] , please.
Return: bin 2
